Values from patent US20170267762A1

target: T1, human PD-1 on cells (293T cells transfected with human PD-1) (human, UniProt Q15116 25-288); test: FACS blockage on hPD-1-293T cells, competitor biotin PD-L1
T1 construct: whole, on cells; Also used as the target for the functional rows, where PD-1 stands on human T cells
T1 sequence (Q15116 25-288): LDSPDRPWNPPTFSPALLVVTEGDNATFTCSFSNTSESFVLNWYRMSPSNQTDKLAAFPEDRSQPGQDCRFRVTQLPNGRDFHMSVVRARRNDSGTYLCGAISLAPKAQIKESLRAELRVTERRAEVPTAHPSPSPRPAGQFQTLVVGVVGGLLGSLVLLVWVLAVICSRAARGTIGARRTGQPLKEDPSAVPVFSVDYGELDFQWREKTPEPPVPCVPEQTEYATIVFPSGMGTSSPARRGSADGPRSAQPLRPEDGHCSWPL
Value Kind: IC50 (µg/mL)

[[record]]
binder = "chimeric 4C10-hIgG4 (antibody, V domains shown, Mouse variable regions with human IgG4 constant region) VH: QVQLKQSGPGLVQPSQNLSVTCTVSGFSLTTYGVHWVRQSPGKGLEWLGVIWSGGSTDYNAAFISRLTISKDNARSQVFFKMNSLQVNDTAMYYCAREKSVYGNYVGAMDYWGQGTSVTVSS VL: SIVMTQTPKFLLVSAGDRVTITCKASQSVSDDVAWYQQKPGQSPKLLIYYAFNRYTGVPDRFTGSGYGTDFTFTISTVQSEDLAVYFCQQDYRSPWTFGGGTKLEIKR"
value_measured = 0.129

[[record]]
binder = "chimeric 14A6-hIgG4 (antibody, V domains shown, Mouse variable regions with human IgG4 constant region) VH: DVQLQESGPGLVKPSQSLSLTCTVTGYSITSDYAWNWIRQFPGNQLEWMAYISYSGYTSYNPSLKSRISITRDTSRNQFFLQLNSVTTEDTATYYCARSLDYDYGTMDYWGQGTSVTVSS VL: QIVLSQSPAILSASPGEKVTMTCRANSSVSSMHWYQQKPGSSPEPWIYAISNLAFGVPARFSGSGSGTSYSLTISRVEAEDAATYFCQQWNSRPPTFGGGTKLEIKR"
value_measured = 0.0614

[[record]]
binder = "chimeric 15H5-hIgG4 (antibody, V domains shown, Mouse variable regions with human IgG4 constant region) VH: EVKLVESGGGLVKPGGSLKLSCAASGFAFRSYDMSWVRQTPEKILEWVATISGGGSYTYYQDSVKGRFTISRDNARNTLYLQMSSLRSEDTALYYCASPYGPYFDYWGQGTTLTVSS VL: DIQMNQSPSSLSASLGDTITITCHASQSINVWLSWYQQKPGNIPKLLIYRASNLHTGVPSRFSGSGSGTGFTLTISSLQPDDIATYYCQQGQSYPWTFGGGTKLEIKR"
value_measured = 0.101

[[record]]
binder = "chimeric 22A5-hIgG4 (antibody, V domains shown, Mouse variable regions with human IgG4 constant region) VH: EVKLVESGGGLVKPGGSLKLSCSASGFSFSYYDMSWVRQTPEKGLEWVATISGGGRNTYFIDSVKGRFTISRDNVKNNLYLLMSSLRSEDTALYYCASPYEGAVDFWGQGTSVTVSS VL: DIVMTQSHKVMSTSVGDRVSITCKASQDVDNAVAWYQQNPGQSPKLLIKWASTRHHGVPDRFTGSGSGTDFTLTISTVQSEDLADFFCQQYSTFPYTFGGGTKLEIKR"
value_measured = 0.0843

[[record]]
binder = "chimeric 10D1-hIgG4 (antibody, V domains shown, Mouse variable regions with human IgG4 constant region) VH: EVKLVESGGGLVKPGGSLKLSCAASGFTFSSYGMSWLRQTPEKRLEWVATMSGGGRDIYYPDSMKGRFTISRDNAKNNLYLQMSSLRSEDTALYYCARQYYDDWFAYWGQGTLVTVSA VL: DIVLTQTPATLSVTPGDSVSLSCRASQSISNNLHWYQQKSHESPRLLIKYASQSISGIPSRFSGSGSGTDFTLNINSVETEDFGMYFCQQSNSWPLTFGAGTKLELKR"
value_measured = 0.0403

[[record]]
binder = "chimeric 13F1-hIgG4 (antibody, V domains shown, Full chimeric chains; also called 13F1-chimeric) VH: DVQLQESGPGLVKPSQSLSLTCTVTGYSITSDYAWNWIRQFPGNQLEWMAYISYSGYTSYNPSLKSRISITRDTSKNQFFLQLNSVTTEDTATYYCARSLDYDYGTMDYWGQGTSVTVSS VL: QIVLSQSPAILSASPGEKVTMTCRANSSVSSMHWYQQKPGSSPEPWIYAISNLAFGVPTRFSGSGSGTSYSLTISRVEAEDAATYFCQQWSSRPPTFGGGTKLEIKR"
value_measured = 0.0521

[[record]]
binder = "chimeric 6E1-hIgG4 (antibody, V domains shown, Mouse variable regions with human IgG4 constant region) VH: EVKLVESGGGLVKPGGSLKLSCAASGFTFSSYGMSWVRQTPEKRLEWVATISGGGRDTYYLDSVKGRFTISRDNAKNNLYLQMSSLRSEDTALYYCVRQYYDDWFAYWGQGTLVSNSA VL: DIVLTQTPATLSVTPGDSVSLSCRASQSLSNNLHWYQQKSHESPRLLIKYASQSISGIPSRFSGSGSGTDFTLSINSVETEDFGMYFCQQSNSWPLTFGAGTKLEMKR"
value_measured = 0.054

